Source of measurements: patent US9394297B2

# measured.on: Pim-1 (Homo sapiens (Human))
# Sequence (P11309 whole entry): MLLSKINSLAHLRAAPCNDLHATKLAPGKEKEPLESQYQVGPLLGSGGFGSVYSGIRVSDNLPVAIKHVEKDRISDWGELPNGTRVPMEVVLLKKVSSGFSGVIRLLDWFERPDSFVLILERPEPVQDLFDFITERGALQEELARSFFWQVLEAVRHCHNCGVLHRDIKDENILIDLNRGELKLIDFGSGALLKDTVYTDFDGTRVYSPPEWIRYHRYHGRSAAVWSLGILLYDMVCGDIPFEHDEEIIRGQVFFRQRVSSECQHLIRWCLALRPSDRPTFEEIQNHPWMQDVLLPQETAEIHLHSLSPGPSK
# protocol: Pim-Mn enzyme assay (HTRF, 384-well), Pim-1
# Assay type: biochemical
# stated.conditions: Pim-1 enzyme 5 pM, ATP 1.5 μM, BAD (S112) 0.5 μM, HTRF, 22-point curve; read-out: Pim-1-Mn IC50 IP
Under this convention, Yes denotes IC50 strictly below 6 nM and No denotes IC50 at or above 6 nM.

Reference set, count: 3
CCCCNc1nc2c(-c3cc4c([nH]3)CCNC4=O)cccc2nc1C ... Yes
Cc1nc2cccc(-c3cc4c([nH]3)CCNC4=O)c2nc1NC1CC(O)C1 (stereo not shown) ... Yes
Cc1nc2cccc(-c3cc4c([nH]3)CCNC4=O)c2nc1NC1CN(C(=O)OC(C)(C)C)C1 ... No

input: # check: IC50 < 6 nM for `COCCOCC(C)(C)Nc1nc2c(-c3cc4c([nH]3)CCNC4=O)cccc2nc1C`
output: No

input: IC50 under 6 nM? Item: CC#CCC1CNC(=O)c2cc(-c3cccc4nc(C)c(NC(C)(C)C)nc34)[nH]c21 (racemic)
output: Yes

input: Is it true that IC50 reported for `Cc1nc2cccc(-c3cc4c([nH]3)CCNC4=O)c2nc1-c1ccccn1` is less than 6 nM?
output: No

input: is_below(IC50, 6 nM) for `CC(C)(C)Nc1nc2c(-c3cc4c([nH]3)CCNC4=O)cccc2nc1Cl` ?
output: Yes

input: Input `CC(C)(C)Nc1nc2c(-c3cc4c([nH]3)CCNC4=O)cccc2nc1C=O` ; condition: IC50 strictly below 6 nM. Does it hold?
output: Yes

###

# measured.on: Pim-1 (Homo sapiens (Human))
# protocol: Pim enzyme assay (HTRF, 96-well), Pim-1
# Type: biochemical
# stated.conditions: full length recombinant Pim-1, biotinylated-BAD (S112) peptide, 10-point curve, 2 h RT, read-out: Pim-1 IC50 IP
pIC50: −log10 of the molar value.
# binarize pIC50: threshold 8 inclusive, high side Condition met, low side Condition not met

Reference set (4 entries):
CS(=O)(=O)c1ccc(-c2ccc3cccc(-c4cc5c([nH]4)CCNC5=O)c3n2)c(F)c1 [Example 86] ... Condition not met
O=C1NCCc2[nH]c(-c3cccc4ccc(Oc5c(F)cccc5F)nc34)cc21 [Example 176] ... Condition met
COCCNC(=O)c1ccc2cccc(-c3cc4c([nH]3)CCNC4=O)c2n1 [Example 96] ... Condition not met
CCC1CNC(=O)c2cc(-c3cccc4ccc(Cl)nc34)[nH]c21 (racemic) [Example 22] ... Condition not met

Next, consider the following molecule.
input: Would you say C[C@@H](Nc1ccc2cccc(-c3cc4c([nH]3)CCNC4=O)c2n1)c1ccccc1 [Example 111] shows pIC50 at minimum 8?
output: Condition not met

###

# System: KMS-12-BM myeloma cell line
# protocol: Pim KMS-12 cell assay (phospho-BAD S112 / total BAD, MSD)
# stated.conditions: read-out: KMS-12-BM IC50 IP; KMS-12-BM cells, phospho-BAD (S112) vs total BAD, 1 hour 50 min with compound
Recorded IC50, one value per entry.
Write the value in µM as a bare number.

Cc1nc2cccc(-c3cc4c([nH]3)CCNC4=O)c2nc1N[C@H]1CC[C@@H](N)C1 (single isomer, unassigned) [Example 142] ... 2.26
CCC1CNC(=O)c2cc(-c3cccc4cc(C)c(Nc5ccccc5)nc34)[nH]c21 (single isomer, unassigned) ... 5.21

input: Retrieve IC50 measured for CC1CNC(=O)c2cc(-c3cccc4ccc(Nc5ccccc5)nc34)[nH]c21 (single isomer, unassigned) [Example 30] and print it.
output: 5.89
